Source of measurements: patent US20220064127A1

Test system: ADP-Induced Platelet Aggregation
procedure summary: Inhibition of ADP-induced platelet aggregation in rabbit platelet-rich plasma (microplate method)
Type: cell-based
condition parameters: Oryctolagus cuniculus, Platelet; rabbit PRP, inducer ADP, absorbance 655 nm; read-out: IC50 (Mean ± SE), ADP-induced platelet aggregation
pIC50: −log10 of the molar value.
Give Condition met when the value for pIC50 is at least 5. Give Condition not met when it is less.

CCOC(=O)c1c(C)nc(-c2cccc(C#N)c2)n1OCc1ccc(Cl)cc1 [LY-26q] ... Condition met
CCOC(=O)c1c(C)nc(-c2ccc(O)c(C#N)c2)n1O ... Condition not met
CCOC(=O)c1c(C)nc(-c2ccc(OCc3ccccc3)c(C#N)c2)n1O ... Condition not met
COn1c(-c2cccc(C#N)c2)nc(C)c1C(=O)Nc1ccccc1 [LY-28c] ... Condition not met
CCOC(=O)c1c(C)nc(-c2cccc(C#N)c2)n1OCc1ccc(C#N)cc1 [LY-26y] ... Condition met
CCOC(=O)c1c(C)nc(-c2cccc(C#N)c2)n1OCc1ccc(F)cc1 [LY-26n] ... Condition met
CCOC(=O)c1c(C)nc(-c2cccc(C#N)c2)n1OC(C)C [LY-26c] ... Condition met

### Prompt I'd appreciate it if you could say whether CCOC(=O)c1c(C)nc(-c2cccc(C#N)c2)n1OCc1ccncc1 [LY-26j] has pIC50 at least equal to 5.
### Response Condition met
